The reported numbers originate from patent US20210024545A1.

Reported IC50 values for the following compounds.
- TEST_TARGET: human TASK-1 (Homo sapiens, UniProt O14649)
- Sequence (O14649 whole entry): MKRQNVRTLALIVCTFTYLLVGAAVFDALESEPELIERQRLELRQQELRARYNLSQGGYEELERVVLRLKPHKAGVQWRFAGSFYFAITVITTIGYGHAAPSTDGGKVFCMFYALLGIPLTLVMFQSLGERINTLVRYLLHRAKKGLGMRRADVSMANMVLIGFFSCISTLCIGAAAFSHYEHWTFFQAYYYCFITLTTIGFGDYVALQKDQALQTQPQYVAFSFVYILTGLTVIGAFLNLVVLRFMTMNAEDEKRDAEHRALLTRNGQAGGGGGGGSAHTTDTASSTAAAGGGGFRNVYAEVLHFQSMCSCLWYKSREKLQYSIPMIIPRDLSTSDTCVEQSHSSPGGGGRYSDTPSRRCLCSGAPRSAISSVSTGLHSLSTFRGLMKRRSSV
- PROTOCOL_TEXT: Inhibition of recombinant TASK-1 in stably transfected CHO cells, KCl-induced depolarization, voltage-sensitive dye (B-2)
- Type: cell-based
- Design: expressed in transfected cells; host or cells: stably transfected CHO cells
- PARTICULARS: depolarization induced by 40 mM potassium chloride, some mean values from multiple determinations
State the answer as a number, implicitly in µM.

{"columns": ["COMPOUND", "TEST_TARGET", "IC50 [µM]"],
 "data": [
  ["Cc1cccc(Cl)c1NC(=O)N1C2COCC1CN(Cc1c(-c3ccc(Cl)cc3)nc3ccccn13)C2", "human TASK-1 (Homo sapiens, UniProt O14649)", 3.6],
  ["COc1cccc(C(=O)N2CC3CCC2CN3Cc2c(-c3ccc(Cl)cc3)nc3ccccn23)c1 (single isomer, unassigned) [Example 39]", "human TASK-1 (Homo sapiens, UniProt O14649)", 0.64],
  ["O=C(c1cc(F)ccc1Cl)N1C2CC1CN(Cc1c(-c3ccc(Cl)cc3)nc3ccccn13)C2", "human TASK-1 (Homo sapiens, UniProt O14649)", 1.1]
]}

What measured IC50 goes with CC(C)(C)OC(=O)N1CC2CCC1CN2Cc1c(-c2ccc(Cl)cc2)nc2ccccn12 (single isomer, unassigned) [Example 15] ? 0.397

What measured IC50 goes with CC(C)c1ccc(-c2nc3ccccn3c2CN2CC3CCC(C2)N3C(=O)c2ccccc2F)cc1 ? 0.78

What measured IC50 goes with O=C(N1CCCC1)N1C2COCC1CN(Cc1c(-c3ccc(Cl)cc3)nc3ccccn13)C2 ? 0.87

What measured IC50 goes with CC(C)(C)OC(=O)N1CC2CCC(C1)N2Cc1c(-c2ccc(Cl)cc2)nc2ccccn12 ? 0.394
